# ASSAY DETAILS: Intrinsic clearance in rat microsomes
# Assay type: ADME, Microsome
# CONDITION: liver microsomes
VALUE KIND: microsomal CLint (µL/min/mg)
Reply numerically in µL/min/mg, unit not repeated.

Lookup: Could you tell me which microsomal CLint is on file for O=C(Nc1cc(-c2ccnc(Nc3ccccc3)c2)ccn1)C1CCOC1 (stereo unspecified) ?
Found: 12

###

# ASSAY DETAILS: Half life in po dosed rat
# Type: ADME, organism-based
# CONDITION: in vivo
VALUE KIND: half-life (h)
# number only, unit h dropped from output

Lookup: Need half-life, item O=C(Nc1cc(-c2ccnc(Nc3ccccc3)c2)ccn1)C1CCOC1 (stereo unspecified)
Found: 4.7

###

# ASSAY DETAILS: Clearance in rat
# Type: ADME, organism-based
# CONDITION: in vivo
VALUE KIND: clearance (mL/min/kg)
Provide the reading as a plain figure in mL/min/kg.

Lookup: Query: clearance; subject: O=C(Nc1cc(-c2ccnc(Nc3ccccc3)c2)ccn1)C1CCOC1 (stereo unspecified)
Found: 30

###

# ASSAY DETAILS: Permeability across Caco-2 cell membrane
# Format: ADME, cell-based
# CONDITION: human, read-out: permeability
VALUE KIND: Papp (×10⁻⁶ cm/s)
Your answer should be a plain number; it is taken to be in ×10⁻⁶ cm/s.

Lookup: Field request: Papp | item: O=C(Nc1cc(-c2ccnc(Nc3ccccc3)c2)ccn1)C1CCOC1 (stereo unspecified)
Found: 29.9

###

# ASSAY DETAILS: Solubility in phosphate buffer at pH 7.4
# Format: physicochemical
VALUE KIND: solubility (µM)
Give the value in µM but do not write µM after it.

Here is how some compounds turned out for solubility.
COMPOUND	REPORTED
O=C(Nc1cc(-c2ccnc(Nc3ccccc3)c2)ccn1)c1cccnc1	17
CC(=O)N1CCC(C(=O)Nc2cc(-c3ccnc(Nc4ccccc4)c3)ccn2)CC1	94
COC1CCC(C(=O)Nc2cc(-c3ccnc(Nc4ccccc4)c3)ccn2)CC1 (configuration not stated)	8
Cc1cnc(C(=O)Nc2cc(-c3ccnc(Nc4ccccc4)c3)ccn2)cn1	40
COCCC(=O)Nc1cc(-c2ccnc(Nc3ccccc3)c2)ccn1	20

Here's the next entry for you.
Lookup: Form field: reported solubility of "O=C(Nc1cc(-c2ccnc(Nc3ccccc3)c2)ccn1)c1ccco1"
Found: 4
